target: NMDA receptor (3H-MK801 binding, high and low affinity binding sites); assay: 3H-MK801 (Dizocilpine) binding in vitro, rat whole brain membranes; conditions: low affinity binding site; 5 nM 3H-MK-801, 2 hours, room temperature; read-out: 3H-MK801 IC50 low
I'd appreciate it if you could supply log10 of IC50 values for the items below.
// units: µM (pre-log); metric: IC50; scale: log10

>>> endpoint_value("Nc1ccc(OCCCN2CC=C(c3ccc(F)cc3)CC2)cc1")
1.64
>>> endpoint_value("NC(=O)Nc1ccc(OCC(O)CN2CC=C(c3ccc(F)cc3)CC2)cc1 (centres unmarked)")
1.74
>>> endpoint_value("CCC(=O)Nc1ccc(OCCCN2CC=C(c3ccc(F)cc3)CC2)cc1")
2.04
>>> endpoint_value("CS(=O)(=O)Nc1ccc(OCCN2CC=C(c3ccc(F)cc3)CC2)cc1")
1.38

Turning to the following compound.
Measured log10 of IC50, CC(=O)c1ccc(OCCCN2CC=C(c3ccccc3)CC2)cc1 : 2.47

* * *

Biological target: NMDAR1C--NMDAR2B (Rattus norvegicus, UniProt P35439+Q00960)
Sequence (Q00960 27-1482, other chains not shown): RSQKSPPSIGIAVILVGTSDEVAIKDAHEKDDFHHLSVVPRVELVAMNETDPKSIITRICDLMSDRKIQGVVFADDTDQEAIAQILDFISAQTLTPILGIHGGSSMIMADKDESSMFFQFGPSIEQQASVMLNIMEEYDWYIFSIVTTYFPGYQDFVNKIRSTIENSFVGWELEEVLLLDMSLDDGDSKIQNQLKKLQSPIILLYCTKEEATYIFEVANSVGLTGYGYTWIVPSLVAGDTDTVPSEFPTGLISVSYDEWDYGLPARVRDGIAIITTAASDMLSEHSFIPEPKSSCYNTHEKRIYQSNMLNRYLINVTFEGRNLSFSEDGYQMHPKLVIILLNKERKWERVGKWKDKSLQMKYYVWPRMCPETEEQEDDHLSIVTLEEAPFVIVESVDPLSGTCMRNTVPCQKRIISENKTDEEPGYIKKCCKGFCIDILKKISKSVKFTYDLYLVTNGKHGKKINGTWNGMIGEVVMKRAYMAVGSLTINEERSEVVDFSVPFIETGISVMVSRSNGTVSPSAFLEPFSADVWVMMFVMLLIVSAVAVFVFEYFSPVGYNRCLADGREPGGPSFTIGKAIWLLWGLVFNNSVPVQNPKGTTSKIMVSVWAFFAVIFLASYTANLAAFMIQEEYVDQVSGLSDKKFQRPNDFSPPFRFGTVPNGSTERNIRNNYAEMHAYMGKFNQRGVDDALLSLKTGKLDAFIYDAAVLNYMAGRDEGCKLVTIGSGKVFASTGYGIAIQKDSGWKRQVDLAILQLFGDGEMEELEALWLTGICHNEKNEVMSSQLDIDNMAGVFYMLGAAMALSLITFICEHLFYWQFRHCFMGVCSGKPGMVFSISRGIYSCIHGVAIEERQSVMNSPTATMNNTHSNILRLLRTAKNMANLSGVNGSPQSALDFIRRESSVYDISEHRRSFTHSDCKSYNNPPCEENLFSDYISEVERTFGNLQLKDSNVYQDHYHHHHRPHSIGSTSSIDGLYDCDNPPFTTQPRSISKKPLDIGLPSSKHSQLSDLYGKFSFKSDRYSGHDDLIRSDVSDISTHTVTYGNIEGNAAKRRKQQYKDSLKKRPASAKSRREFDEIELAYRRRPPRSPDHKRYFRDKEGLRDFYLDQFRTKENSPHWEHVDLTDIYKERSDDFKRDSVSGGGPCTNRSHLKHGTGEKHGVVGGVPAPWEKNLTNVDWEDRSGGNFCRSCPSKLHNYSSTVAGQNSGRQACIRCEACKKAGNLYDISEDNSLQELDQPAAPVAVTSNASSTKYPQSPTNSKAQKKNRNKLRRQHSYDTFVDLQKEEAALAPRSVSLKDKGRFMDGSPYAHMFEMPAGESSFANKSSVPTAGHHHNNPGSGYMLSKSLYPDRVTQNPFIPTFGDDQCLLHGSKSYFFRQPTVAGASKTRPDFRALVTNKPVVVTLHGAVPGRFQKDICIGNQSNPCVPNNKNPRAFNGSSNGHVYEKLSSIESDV
Assay: Electrophysiology on recombinant NMDA receptors NMDAR1C-NMDAR2B expressed in Xenopus oocytes
Conditions: -80 mV, 15 μM Asp plus 0.2 μM Gly, read-out: Electrophysiology IC50 NMDAR 1C u. 2B
Description: Electrophysiology on recombinant NMDA receptors cDNA clones coding for the subunits NMDAR1C and NMDAR2A of the NMDA receptor (see Hollmann and Heinemann, 1994, Annu. Rev. Neurosci. 17:31 for nomenclature of NMDA receptor subunits) were isolated from a rat brain λgt11 cDNA library as published elsewhere (Sigel et al., 1994, J. Biol. Chem. 269:8204). […] Figures for the IC50 in all other cases are arithmetic mean values of individual IC50 s determined by the logistic curve fits.
I'd appreciate it if you could supply pIC50 values for the items below.
Give bare numbers, as −log10 of the molar value.

Use these answered entries as a reference point.
>>> endpoint_value("CS(=O)(=O)Nc1ccc(OCCN2CC=C(c3ccc(F)cc3)CC2)cc1")
6.10
>>> endpoint_value("NC(=O)c1ccc(OCC(O)CN2CC=C(c3ccc(F)cc3)CC2)cc1 (stereo not drawn)")
6.15

Measured pIC50, CCOC(=O)Nc1ccc(OCC(O)CN2CC=C(c3ccc(F)cc3)CC2)cc1 (stereo not drawn) : 6.20

* * *

molecular target: NMDA receptor (3H-MK801 binding, high and low affinity binding sites); assay: 3H-MK801 (Dizocilpine) binding in vitro, rat whole brain membranes; settings: high affinity binding site; 5 nM 3H-MK-801, 2 hours, room temperature; read-out: 3H-MK801 IC50 high
readout-kind: IC50 (nM)
Give bare numbers, in nM.

Use these answered entries as a reference point.
>>> endpoint_value("CCC(=O)Nc1ccc(OCCCN2CC=C(c3ccc(F)cc3)CC2)cc1")
1000
>>> endpoint_value("CC(=O)Nc1ccc(OCCCN2CC=C(c3ccc(F)cc3)CC2)cc1")
200
>>> endpoint_value("COc1ccc(C2=CCN(CCCOc3ccc(NC(C)=O)cc3)CC2)cc1")
910
>>> endpoint_value("CCOC(=O)Nc1ccc(OCC(O)CN2CC=C(c3ccc(F)cc3)CC2)cc1 (centres unmarked)")
136

Turning to the following molecule.
Measured IC50, CS(=O)(=O)Nc1ccc(OCCN2CC=C(c3ccc(F)cc3)CC2)cc1 : 236
